system: KM12 colon; test: NCI tumour cell line growth inhibition, 48 h; in the data active = GI50 below about 0.43 µM; inactive = the rest
Tick one outcome: active, inactive

C=CCO[C@H]1CO[C@H]2[C@@H]1OC[C@@H]2Oc1ccc(Nc2ccnc(Nc3ccc(O[C@H]4CO[C@H]5[C@@H]4OC[C@@H]5OCC=C)c(Cl)c3)n2)cc1Cl :: inactive
COC([CH2][Hg][n]1cnc2c1c(=O)n(C)c(=O)n2C)CN1C(=O)c2ccccc2S1(=O)=O (centres undefined) :: inactive
Cc1nc2sccn2c1-c1csc(Nc2ccccc2Cl)n1 :: inactive
CCN1/C(=C\c2cc[n+](CC)c3ccccc23)C=Cc2ccccc21 :: active
CCOC1Oc2ccccc2C(=O)/C1=C/Nc1ccc(C(C)=O)cc1 (centres undefined) :: inactive

# input Write down the call the test reported for this molecule. Item: CC1CCc2nc[nH]c(=O)c21 (centres undefined)
# output inactive

# input Write down the call the test reported for this molecule. Item: OCCN(CCO)c1ncnc2c1ncn2Cc1ccc(CCl)cc1
# output inactive

# input Write down the call the test reported for this molecule. Item: CCN1CCN(Cc2ccc(NC(=O)c3cccc(C#Cc4cccc5[nH]nc(N)c45)c3)cc2C(F)(F)F)CC1
# output active

# input Write down the call the test reported for this molecule. Item: CC1CCC(n2c3cnccc3c3cnc(Nc4ccc5c(n4)CCN(C(=O)CO)C5)nc32)CC1 (centres undefined)
# output active

* * *

tested on: PC-3 prostate; experiment: NCI tumour cell line growth inhibition, 48 h; in the data active = GI50 below about 0.43 µM; inactive = the rest
Tick one outcome: True = active, False = inactive

Cc1nc2sccn2c1-c1csc(Nc2ccccc2Cl)n1 :: False
C=C(C)C(OC)C(O)CC1(C)CC(O)CC(C)(C2CCC3OC(C4(C)CCC(Br)C(C)(C)O4)CCC3(C)O2)O1 (centres undefined) :: False
O=C1NC(=NCCc2cccc(F)c2)S/C1=C\c1ccc2ncccc2c1 :: False
CCN1CCN(Cc2ccc(NC(=O)c3cccc(C#Cc4cccc5[nH]nc(N)c45)c3)cc2C(F)(F)F)CC1 :: False
Cc1cc(-c2nc(C(=O)Nc3cc4oc(N5CCOCC5)nc4nc3N3CC[C@@H](O)C3)co2)ccn1 :: False

# input Write down the call the test reported for this compound. Item: COc1cccc(-c2cc(-c3cccc(NS(C)(=O)=O)c3)nc(N)c2C#N)c1O
# output True

# input Write down the call the test reported for this compound. Item: OC1CSSC1Cn1cnc2c(Nc3ccc(OCc4cccc(F)c4)c(Cl)c3)ncnc21 (centres undefined)
# output False

# input Write down the call the test reported for this compound. Item: OCCN(CCO)c1ncnc2c1ncn2Cc1ccc(CCl)cc1
# output False

# input Write down the call the test reported for this compound. Item: COc1cnc2c(c1)C(=O)c1c-2n(CCCN2CCOCC2)c(=O)c2cc(F)ccc12
# output True

# input Write down the call the test reported for this compound. Item: COC1/C=C/OC2(C)Oc3c(C)c(O)c4c(O)c(c(/C=N/Nc5ccc([N+](=O)[O-])cc5[N+](=O)[O-])c(O)c4c3C2=O)NC(=O)C(C)=C/C=C/C(C)C(O)C(C)C(O)C(C)C(OC(C)=O)C1C (centres undefined)
# output False

# input Write down the call the test reported for this compound. Item: O=C(Nc1ccc(-n2ccc3c(NC(=O)c4ccccc4)nccc32)cc1)c1ccc(Cl)c(C(F)(F)F)c1
# output False

# input Write down the call the test reported for this compound. Item: Nc1ccccc1C#C/C=C\C#Cc1ccccc1OC(F)(F)F
# output False
